B1: PBXIP1 (parent)
chain: EKQKQPRWREGTKDSHDPLPSWAE

# Variants of: B1
# protocol_notes: protein stability index of a GFP-peptide fusion (GPS, HEK-293T) (PSI 1-6); higher = more stable;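 further: lentivirally expressed fusions sorted by FACS into six bins by GFP to DsRed ratio, PSI derived from sequencing read proportions per bin multiplied by bin number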
# condition_summary: c terminus: a fixed tail appended
Each record gets a class by protein stability index: interval 1 = under 2, interval 2 = from 2 up to 3, interval 3 = 3 and over

// below: answered variants
>>> cat("K2Y")
"interval 2"
>>> cat("P6Y")
"interval 3"
>>> cat("S21M")
"interval 2"

Q) Which class is correct for the following variant? K4R
A) interval 2

Q) Which class is correct for the following variant? A23P
A) interval 3

Q) Which class is correct for the following variant? S21V
A) interval 2

Q) Which class is correct for the following variant? L19C
A) interval 1

Q) Which class is correct for the following variant? E1F
A) interval 1

Q) Which class is correct for the following variant? Q3P
A) interval 1

Q) Which class is correct for the following variant? A23T
A) interval 2

Q) Which class is correct for the following variant? G11R
A) interval 1

Q) Which class is correct for the following variant? W22D
A) interval 3

Q) Which class is correct for the following variant? R7P
A) interval 2

Q) Which class is correct for the following variant? Q3V
A) interval 1

Q) Which class is correct for the following variant? E10W
A) interval 1

Q) Which class is correct for the following variant? Q3Y
A) interval 1

Q) Which class is correct for the following variant? R9S
A) interval 1

Q) Which class is correct for the following variant? A23L
A) interval 3

Q) Which class is correct for the following variant? S21Y
A) interval 3
